In this section we review reported CC50 values for a set of molecules.
Assay: in vitro
Details: African green monkey, VeroE6 + CP (CC50), Vero E6-eGFP cells with CP-100356, absence of virus, MTS; numeric bounds
Readout label: CC50

{"Molecule": "N#C[C@H](C[C@@H]1CCNC1=O)NC(=O)[C@@H]1[C@H]2CCC[C@H]2CN1C(=O)c1cc2c(Cl)ccc(Cl)c2[nH]1 [Compound 167]", "Reported": "> 50 µM"}
{"Molecule": "O=C(NCc1ccccc1)C(=O)C(C[C@@H]1CCNC1=O)NC(=O)[C@@H]1C[C@@H](C2CC2)CN1C(=O)c1cc2ccccc2[nH]1 (stereo partly drawn) [Compound 40]", "Reported": "> 100 µM"}
{"Molecule": "CC1(C)[C@@H]2[C@@H](C(=O)NC(C[C@@H]3CCNC3=O)C(=O)C(=O)NCc3ccccc3)N(C(=O)c3cc4ccccc4[nH]3)C[C@@H]21 (stereo partly drawn) [Compound 4]", "Reported": "> 100 µM"}
{"Molecule": "COc1cccc2[nH]c(C(=O)N3C[C@@H]4CCC[C@@H]4[C@H]3C(=O)N[C@@H](CN3CCCNC3=O)C(=O)C(=O)NC3CC3)cc12 [Compound 118]", "Reported": "> 50 µM"}
{"Molecule": "COc1cccc2[nH]c(C(=O)N3C[C@]4(C[C@H]3C(=O)N[C@@H](C[C@@H]3CCCNC3=O)C(=O)CO)CC4(F)F)cc12 [Compound 47]", "Reported": "> 100 µM"}
{"Molecule": "O=C1NCC[C@H]1C[C@H](NC(=O)[C@@H]1[C@H]2CCC[C@H]2CN1C(=O)c1cc2c(=O)[nH]ccc2[nH]1)C(=O)CO [Compound 76]", "Reported": "> 100 µM"}
{"Molecule": "CC(F)(F)c1cccc2[nH]c(C(=O)N3C[C@@H]4CCC[C@@H]4[C@H]3C(=O)N[C@@H](C[C@@H]3CCNC3=O)C(=O)CO)cc12 [Compound 152]", "Reported": "> 50 µM"}
{"Molecule": "O=C1NCCC[C@H]1C[C@H](NC(=O)[C@@H]1[C@H]2CCC[C@H]2CN1C(=O)c1cc2ccccc2[nH]1)C(O)S(=O)(=O)O (stereo partly drawn) [Compound 58]", "Reported": "> 100 µM"}
{"Molecule": "CC(C)C(=O)OCC(=O)[C@H](C[C@@H]1CCNC1=O)NC(=O)[C@@H]1[C@H]2CCC[C@H]2CN1C(=O)c1cc2c(Cl)cc(Cl)cc2[nH]1 [Compound 125]", "Reported": "> 50 µM"}
{"Molecule": "COc1ccc2[nH]c(C(=O)N3C[C@@H]4CCC[C@@H]4[C@H]3C(=O)N[C@@H](C[C@@H]3CCNC3=O)C(=O)CO)cc2c1OC [Compound 81]", "Reported": "> 50 µM"}
{"Molecule": "COc1ccc(Cl)c2[nH]c(C(=O)N3C[C@@H]4CCC[C@@H]4[C@H]3C(=O)N[C@@H](C[C@@H]3CCNC3=O)C(=O)CO)cc12 [Compound 89]", "Reported": "> 100 µM"}
{"Molecule": "O=C(NC1CC1)C(=O)[C@H](C[C@@H]1CCNC1=O)NC(=O)[C@@H]1CC2(CCN1C(=O)c1cc3c(C4CC4)cccc3[nH]1)CC2 [Compound 180]", "Reported": "> 50 µM"}

----------
Assay: in vitro
Details: African green monkey, VeroE6 + CP (CC50), Vero E6-eGFP cells with CP-100356, absence of virus, MTS; numeric bounds

{"Compound": "O=C1NCC[C@H]1C[C@H](NC(=O)[C@@H]1[C@H]2CCC[C@H]2CN1C(=O)c1cc2c(Cl)c(F)cc(F)c2[nH]1)C(=O)CO", "CC50": "> 50 µM"}
{"Compound": "C=C[C@@H]1C[C@@H](C(=O)N[C@@H](C[C@@H]2CCNC2=O)C(=O)C(=O)NCc2ccccc2)N(C(=O)c2cc3ccccc3[nH]2)C1", "CC50": "> 100 µM"}
{"Compound": "COc1cccc2[nH]c(C(=O)N3C[C@]4(C[C@H]3C(=O)N[C@@H](C[C@@H]3CCNC3=O)C(=O)CO)CC4(F)F)cc12", "CC50": "> 100 µM"}
{"Compound": "COCCNC(=O)C(=O)[C@H](C[C@@H]1CCNC1=O)NC(=O)[C@@H]1[C@H]2CCC[C@H]2CN1C(=O)c1cc2c(OC)cccc2[nH]1", "CC50": "> 100 µM"}
{"Compound": "COc1cccc2[nH]c(C(=O)N3C[C@]4(C[C@H]3C(=O)NC(C[C@@H]3CCCNC3=O)C(=O)C(N)=O)CC4(F)F)cc12 (stereo partly drawn)", "CC50": "> 100 µM"}
{"Compound": "O=C(NCc1ccccc1)C(=O)C(C[C@@H]1CCNC1=O)NC(=O)[C@@H]1C[C@@H](OCc2ccccc2)CN1C(=O)c1cc2ccccc2[nH]1 (stereo partly drawn)", "CC50": "> 100 µM"}

----------
Target: 3CLpro (Severe acute respiratory syndrome coronavirus 2)
Assay: SARS-CoV-2 3CLpro protease assay (duplex, SAMDI-MS)
Assay type: biochemical
Parameters: For the duplex assay, 3CLpro and HRV3C was added
Settings: 3CLpro, 30 mins preincubation, class symbols; read-out: SARS-Cov-2 IC50
In this section we review reported IC50 values for a set of compounds.

{"Compound": "COc1cccc2[nH]c(C(=O)N3C[C@@H]4CCC[C@@H]4[C@H]3C(=O)N[C@H](CN3CCCC3=O)C(=O)C(=O)NC3CC3)cc12 (single isomer, unassigned) [Compound 113B]", "IC50": "2000 to 20000 nM"}
{"Compound": "COc1cccc2[nH]c(C(=O)N3C[C@@H]4CCC[C@@H]4[C@H]3C(=O)NC(CN3CCCC3=O)C(=O)C(=O)NC3CC3)cc12 (single isomer, unassigned) [Compound 113A]", "IC50": "200 to 2000 nM"}
{"Compound": "CC(C)(C)O[C@@H]1C[C@@H](C(=O)NC(C[C@@H]2CCNC2=O)C(=O)C(=O)NCc2ccccc2)N(C(=O)c2cc3ccccc3[nH]2)C1 (some centres unmarked) [Compound 10]", "IC50": "2000 to 20000 nM"}
{"Compound": "C[C@@H]1C[C@@H](C(=O)N[C@@H](C[C@@H]2CCNC2=O)C(=O)C(=O)NCc2ccccc2)N(C(=O)c2cc3ccccc3[nH]2)C1 [Compound 25]", "IC50": "2000 to 20000 nM"}
{"Compound": "CSc1cccc2[nH]c(C(=O)N3C[C@@H]4CCC[C@@H]4[C@H]3C(=O)N[C@@H](C[C@@H]3CCNC3=O)C(=O)CO)cc12 [Compound 154]", "IC50": "< 20 nM"}

----------
In this section we review reported pEC50 values for a set of molecules.
System: SARS-CoV-2-GHB-03021/2020
Test: microbe, parasite or virus in culture
Assay type: cell-based
Details: Severe acute respiratory syndrome coronavirus 2, Vero C1008, 96 h; read-out: VeroE6 + CP (EC50)
pEC50: −log10 of the molar value.

{"Mol smiles": "COc1cccc2[nH]c(C(=O)N3C[C@H]4[C@@H]([C@H]3C(=O)N[C@@H](C[C@@H]3CCNC3=O)C(=O)C(N)=O)C4(C)C)cc12", "pEC50": "< 4.00"}
{"Mol smiles": "O=C1NCC[C@H]1C[C@H](NC(=O)[C@@H]1[C@H]2CCC[C@H]2CN1C(=O)c1cc2c(Cl)cc(Cl)c(F)c2[nH]1)C(=O)CO", "pEC50": "> 6.00"}
{"Mol smiles": "COc1cccc2[nH]c(C(=O)N3C[C@@H]4CCC[C@@H]4[C@H]3C(=O)N[C@@H](C[C@@H]3CCNC3=O)C(=O)c3nc4ccccc4[nH]3)cc12", "pEC50": "4.00 to 5.00"}
{"Mol smiles": "O=C1NCC[C@H]1C[C@H](NC(=O)[C@@H]1[C@H]2CCC[C@H]2CN1C(=O)c1cc2c([nH]1)CCCC2)C(=O)CO", "pEC50": "> 6.00"}
{"Mol smiles": "O=C[C@H](C[C@@H]1CCNC1=O)NC(=O)[C@@H]1[C@H]2CCC[C@H]2CN1C(=O)c1cc2ccccc2[nH]1", "pEC50": "5.00 to 6.00"}
{"Mol smiles": "O=C(c1ccccc1)c1c[nH]c(C(=O)N2C[C@@H]3CCC[C@@H]3[C@H]2C(=O)N[C@@H](C[C@@H]2CCNC2=O)C(=O)CO)c1", "pEC50": "5.00 to 6.00"}

----------
In this section we review reported IC50 values for a set of compounds.
Molecular target: 3CLpro (Severe acute respiratory syndrome coronavirus 2)
Test: SARS-CoV-2 3CLpro protease assay (duplex, SAMDI-MS)
Type: biochemical
Set-up: For the duplex assay, 3CLpro and HRV3C was added
Details: 3CLpro, 30 mins preincubation, class symbols; read-out: SARS-Cov-2 IC50

{"Compound": "CC(C)C(=O)OCC(=O)[C@H](C[C@@H]1CCNC1=O)NC(=O)[C@@H]1[C@H]2CCC[C@H]2CN1C(=O)c1cc2c(Cl)cc(Cl)cc2[nH]1 [Compound 125]", "IC50": "200 to 2000 nM"}
{"Compound": "COc1cccc2[nH]c(C(=O)N3CCc4ccccc4[C@H]3C(=O)N[C@@H](C[C@@H]3CCNC3=O)C(=O)C(=O)NC3CC3)cc12 [Compound 102]", "IC50": "200 to 2000 nM"}
{"Compound": "COc1cccc2sc(C(=O)N3C[C@@H]4CCC[C@@H]4[C@H]3C(=O)N[C@@H](C[C@@H]3CCNC3=O)C(=O)CO)cc12 [Compound 72]", "IC50": "200 to 2000 nM"}
{"Compound": "O=C(c1ccccc1)c1c[nH]c(C(=O)N2C[C@@H]3CCC[C@@H]3[C@H]2C(=O)N[C@@H](C[C@@H]2CCNC2=O)C(=O)CO)c1 [Compound 84]", "IC50": "20 to 200 nM"}
{"Compound": "COc1ccnc2[nH]c(C(=O)N3C[C@@H]4CCC[C@@H]4[C@H]3C(=O)N[C@@H](C[C@@H]3CCNC3=O)C(=O)CO)cc12 [Compound 67]", "IC50": "20 to 200 nM"}
{"Compound": "O=C1NCC[C@H]1C[C@H](NC(=O)[C@@H]1[C@H]2CCC[C@H]2CN1C(=O)c1cc2c(OC(F)F)cccc2[nH]1)C(=O)CO [Compound 87]", "IC50": "< 20 nM"}
